Task for the reader: assign each of the following compounds its reported remaining at 0.5 h, 1 µM.
# Assay protocol: Metabolic stability in human liver microsomes assessed as compound remaining at 1 uM after 30 mins by LC/MS/MS analysis in absence of NADPH generating system
# Format: ADME
# Experimental parameters: read-out: Stability
Give bare numbers, in %.

Smiles record | Scale unit | remaining at 0.5 h, 1 µM
Cc1ccc(-c2cc(CNC(=O)NC34CC5CC(C)(CC(C)(C5)C3)C4)no2)cc1 | % | 115
Cc1cc(CNC(=O)NC23CC4CC(C)(CC(C)(C4)C2)C3)on1 | % | 83
Cc1cc(CNC(=O)NCC23CC4CC(CC(C4)C2)C3)on1 | % | 72
CC12CC3CC(C)(C1)CC(NC(=O)NCc1cc(-c4ccco4)on1)(C3)C2 | % | 95
COc1ccc(-c2cc(CNC(=O)NC34CC5CC(C)(CC(C)(C5)C3)C4)no2)cc1 | % | 102
O=C(NCc1cc(-c2ccco2)on1)NCC12CC3CC(CC(C3)C1)C2 | % | 91

// input: 4 compounds below; output: remaining at 0.5 h, 1 µM for each
1. COc1ccc(-c2cc(CNC(=O)NCC34CC5CC(CC(C5)C3)C4)no2)cc1
2. CC12CC3CC(C)(C1)CC(NC(=O)NCc1cc(-c4cccc(F)c4)no1)(C3)C2
3. Cc1ccc(-c2cc(CNC(=O)NCC34CC5CC(CC(C5)C3)C4)no2)cc1
4. O=C(NCc1cc(-c2cccc(F)c2)no1)NCC12CC3CC(CC(C3)C1)C2

1: 87; 2: 92; 3: 97; 4: 97

###

# Assay protocol: Solubility of compound in sodium phosphate buffer at pH 7.4
# Format: physicochemical
Entry flag: 1.0 if solubility reaches 100 µM; 0.0 if it does not.

# example entries with known answers
Compound | Label class
Cc1cc(C2CCCN2C(=O)NCC23CC4CC(CC(C4)C2)C3)no1 (configuration not stated) | 1.0
CC(C)c1cc(CN(C)C(=O)NCC23CC4CC(CC(C4)C2)C3)no1 | 1.0
Cc1cc(C2CCCN2C(=O)NCC23CC4CC(CC(C4)C2)C3)on1 (configuration not stated) | 1.0
CC(C)c1cc(CN(C)C(=O)NCC23CC4CC(CC(C4)C2)C3)on1 | 1.0
CCc1cc(CNC(=O)NCC23CC4CC(CC(C4)C2)C3)on1 | 1.0

For this compound, is measured solubility 100 µM or higher? CC12CC3CC(C)(C1)CC(NC(=O)NCc1cc(-c4ccco4)on1)(C3)C2
0.0

Threshold query (solubility >= 100 µM) on COc1ccc(-c2cc(CNC(=O)NC34CC5CC(C)(CC(C)(C5)C3)C4)no2)cc1
0.0

Check this compound for solubility at or above 100 µM: Cc1cc(CNC(=O)NC23CC4CC(C)(CC(C)(C4)C2)C3)on1
1.0

Is the recorded value of solubility equal to or greater than 100 µM for this compound? CC(C)c1cc(C2CCCN2C(=O)NCC23CC4CC(CC(C4)C2)C3)no1 (configuration not stated)
1.0

Reported solubility reaches at least 100 µM for O=C(NCc1cc(-c2cccc(F)c2)no1)NCC12CC3CC(CC(C3)C1)C2 ?
0.0

Does solubility meet or surpass 100 µM for CC(C)c1cc(CNC(=O)NCC23CC4CC(CC(C4)C2)C3)on1 ?
1.0
